- Species: Bos taurus
- MEASUREMENT_PROTOCOL: Binding affinity to bovine opsin assessed as rate constant preincubated for 30 mins followed by […] addition and measured after 30 mins by UV-visible spectra method
- REPORTED_CONDITIONS: time 60.0 min
Note to self: values exactly at 0.6 min⁻¹ are Satisfied. So K at or above 0.6 min⁻¹ is Satisfied, below is Not satisfied.

Field: example entries. Status: answers known.
LINE_NOTATION: O=Cc1ccc(C(=O)N2CCN(c3cc(C(F)(F)F)cc(C(F)(F)F)c3)CC2)cc1
CLASS_NAME: Satisfied
--
LINE_NOTATION: CC(=O)/C=C/C1=C(C)CCCC1(C)C
CLASS_NAME: Not satisfied
--
LINE_NOTATION: CC1=C(CNc2ccc(C#N)cc2)C(C)(C)CCC1
CLASS_NAME: Not satisfied
--
LINE_NOTATION: CC1=C(/C=C/C(=O)N2CCC(C#N)CC2)C(C)(C)CCC1
CLASS_NAME: Satisfied
--
LINE_NOTATION: C=CC(=O)Nc1ccc(CNC(=O)c2c(C)cccc2C)cc1
CLASS_NAME: Satisfied
--
LINE_NOTATION: NC(=O)c1ccc(N2CCN(C(=O)c3cc(C(F)(F)F)cc(C(F)(F)F)c3)CC2)cc1
CLASS_NAME: Satisfied

For the next question, use this molecule.
# check: K of O=Cc1ccc(N2CCN(C(=O)c3cc(C(F)(F)F)cc(C(F)(F)F)c3)CC2)cc1 is greater than or equal to 0.6 min⁻¹ Not satisfied

###

- MEASUREMENT_PROTOCOL: Half life of compound
- Assay type: physicochemical
ENDPOINT: half-life (min)
Provide the reading as a plain figure in min.

For record CC(=O)/C=C/C1=C(C)CCCC1(C)C [BETA-IONONE] the listed half-life is 3.6

###

- System: ARPE-19
- MEASUREMENT_PROTOCOL: Cytotoxicity against human ARPE-19 cells assessed as reduction in cell viability at 25 uM measured after 24 hrs by Cell-titre blue assay
- Type: toxicity, cell-based
- REPORTED_CONDITIONS: arpe-19, 24 h
ENDPOINT: Activity

Worked cases, answers included:
COMPOUND: O=Cc1ccc(C(=O)N2CCN(c3cc(C(F)(F)F)cc(C(F)(F)F)c3)CC2)cc1
Activity: Non-Toxic
--
COMPOUND: Cc1cccc(C)c1NC(=O)/C=C/c1ccc(C=O)cc1
Activity: Non-Toxic
--
COMPOUND: Cc1cccc(C)c1N1CCN(C(=O)c2ccc(C(N)=O)cc2)CC1
Activity: Non-Toxic
--
COMPOUND: CC1=C(/C=C/C(C)N2CCc3cc(C=O)ccc3C2)C(C)(C)CCC1 (stereo not given)
Activity: Non-Toxic
--
COMPOUND: NC(=O)c1ccc(N2CCN(C(=O)c3cc(C(F)(F)F)cc(C(F)(F)F)c3)CC2)cc1
Activity: Non-Toxic
--
COMPOUND: O=Cc1ccc(COC(=O)c2cc(C(F)(F)F)cc(C(F)(F)F)c2)cc1
Activity: Non-Toxic
--
COMPOUND: C=CC(=O)Nc1ccc(CNC(=O)c2c(C)cccc2C)cc1
Activity: Non-Toxic
--
COMPOUND: CC(=O)/C=C/C1=C(C)CCCC1(C)C [BETA-IONONE]
Activity: Non-Toxic
--
COMPOUND: O=C(O)c1ccc(COC(=O)c2cc(C(F)(F)F)cc(C(F)(F)F)c2)cc1
Activity: Non-Toxic

We next turn to a different compound, shown below.
get_value(item= O=Cc1ccc(N2CCN(C(=O)c3cc(C(F)(F)F)cc(C(F)(F)F)c3)CC2)cc1 , readout=Activity) returns Non-Toxic

###

- Tested on: HepG2
- MEASUREMENT_PROTOCOL: Cytotoxicity against human HepG2 cells assessed as reduction in cell viability at 25 uM measured after 24 hrs by Cell-titre blue assay
- Assay type: toxicity, cell-based
- REPORTED_CONDITIONS: hepg2, 24 h
ENDPOINT: Activity

Worked cases, Activity given:
MOLECULE: NC(=O)c1ccc(N2CCN(C(=O)c3cc(C(F)(F)F)cc(C(F)(F)F)c3)CC2)cc1
Activity: Non-Toxic

MOLECULE: Cc1cccc(C)c1N1CCN(C(=O)c2ccc(C(N)=O)cc2)CC1
Activity: Non-Toxic

MOLECULE: CC(=O)/C=C/C1=C(C)CCCC1(C)C
Activity: Non-Toxic

MOLECULE: O=Cc1ccc(COC(=O)c2cc(C(F)(F)F)cc(C(F)(F)F)c2)cc1
Activity: Non-Toxic

MOLECULE: Cc1cccc(C)c1NC(=O)/C=C/c1ccc(C=O)cc1
Activity: Non-Toxic

MOLECULE: C=CC(=O)Nc1ccc(CNC(=O)c2c(C)cccc2C)cc1
Activity: Non-Toxic

// below: Activity requested for another molecule
Record O=Cc1ccc(C(=O)N2CCN(c3cc(C(F)(F)F)cc(C(F)(F)F)c3)CC2)cc1 / HepG2, Activity recorded as Non-Toxic

###

- System: HepG2
- MEASUREMENT_PROTOCOL: Cytotoxicity against human HepG2 cells assessed as reduction in cell viability at 25 uM measured after 24 hrs by Cell-titre blue assay
- Format: toxicity, cell-based
- REPORTED_CONDITIONS: hepg2, 24 h
ENDPOINT: Activity (%)
Number in %, nothing else.

LINE_NOTATION: CC1=C(/C=C/C(=O)N2CCC(C#N)CC2)C(C)(C)CCC1
ENDPOINT: Activity
UNIT_TAG: %
READOUT_NUMBER: 50

Could you now consider this next compound?
Reported Activity of CC1=C(CNc2ccc(C#N)cc2)C(C)(C)CCC1 : 25

###

- Tested on: HepG2
- MEASUREMENT_PROTOCOL: Cytotoxicity against human HepG2 cells assessed as reduction in cell viability at 25 uM measured after 24 hrs by Cell-titre blue assay
- Type: toxicity, cell-based
- REPORTED_CONDITIONS: hepg2, 24 h

COMPOUND: O=Cc1ccc(N2CCN(C(=O)c3cc(C(F)(F)F)cc(C(F)(F)F)c3)CC2)cc1
Activity: Non-Toxic

COMPOUND: CC1=C(/C=C/C(C)N2CCc3cc(C=O)ccc3C2)C(C)(C)CCC1 (stereo not drawn)
Activity: Non-Toxic

COMPOUND: O=C(O)c1ccc(COC(=O)c2cc(C(F)(F)F)cc(C(F)(F)F)c2)cc1
Activity: Non-Toxic
